# System: RARb:RXRa (NR concentration 270 nM, RXRa partner concentration 90 nM)
# assay-method-text: PBM binding z-score (relative to random genomic background probes); higher = stronger binding; sequences stand for … in GC…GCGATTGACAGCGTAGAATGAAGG
Binary call on PBM binding z-score: YES from 3 upward, NO beneath that.

Query: Please tell me: is the sequence `AGAACGAGGGCGCGCTGAGTTGATAGCAGAGTAG` at or over 3 in terms of PBM binding z-score?
Response: NO

Query: hey, is PBM binding z-score for this one >= 3? `TAGCCTAGGTCATGCGGGCCAGGATAGTGTCGGC`
Response: YES

Query: Hi team, for `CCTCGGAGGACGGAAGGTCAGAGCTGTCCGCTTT` , is the recorded PBM binding z-score at or above 3?
Response: NO

Query: # bool: PBM binding z-score of `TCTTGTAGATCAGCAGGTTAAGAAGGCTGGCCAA` >= 3
Response: NO

Query: Entry `CCGACTGGGGTAAGGTTACCATAACGCACAGCCA` : is its PBM binding z-score no less than 3?
Response: NO

Query: State whether the measured PBM binding z-score reaches 3, counting equality as reaching it, for `TCTATAAGTTGAAGGGCAACCGACGAGTCCGTTT`
Response: NO

Query: hey, is PBM binding z-score for this one >= 3? `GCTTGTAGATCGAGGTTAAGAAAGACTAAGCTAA`
Response: NO

Query: # check: PBM binding z-score of `CGAACCAGGTCAAGGACAGTGAATCTCCGCACGC` is greater than or equal to 3
Response: YES

Query: Does the reported PBM binding z-score for `GCAGACAGGTGAAACGCAGCTAACTCAGGGTGGC` fall at or above the 3 mark?
Response: NO

Query: Record `CCTGGGAGGACAGAAGGTCAGAGCTGTCCGCTTT` ; criterion: PBM binding z-score no lower than 3. Met?
Response: YES

Query: Reported PBM binding z-score reaches at least 3 for `ATACCAAGGTGATCGTGAGGTCGTTCATACTAAC` ?
Response: NO

Query: Determine whether this sequence has PBM binding z-score no lower than 3: `CCTCCTGGGCCATCAGGTCATTGATATCAACGTT`
Response: NO

Query: Has `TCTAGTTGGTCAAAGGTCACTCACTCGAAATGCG` a recorded PBM binding z-score greater than or equal to 3?
Response: YES

Query: Does the reported PBM binding z-score for `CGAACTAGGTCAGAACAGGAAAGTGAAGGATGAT` fall at or above the 3 mark?
Response: NO

Query: Decide: PBM binding z-score of `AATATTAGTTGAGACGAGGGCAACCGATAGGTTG` >= 3?
Response: NO

Query: Hello, I need to know if `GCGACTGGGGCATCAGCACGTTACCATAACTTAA` has measured PBM binding z-score not below 3. Thanks!
Response: NO

Query: Given `AGAATGAGGTTATAAGTAGATCAGGGAAGAAAGT` , state whether its PBM binding z-score is at least 3.
Response: NO

Query: Is PBM binding z-score at least 3? Consider `CGTCAAAGTTCGAGGTAACGTAACAGAAAGCAGC`
Response: NO

Query: hey, is PBM binding z-score for this one >= 3? `AGAATGAGGTTGTTAAGATCAGGGAATTGCGGTC`
Response: NO

Query: Could you verify whether the entry `CGTCCAAGGTCAGCAGGTCAGTGTAAGCGACGTG` shows PBM binding z-score of no less than 3?
Response: YES

Query: // inclusive: PBM binding z-score at least 3? input: `GGAACGAGGGCACAGTTGATAGCATCTGTCGACG`
Response: NO

Query: Please tell me: is the sequence `TTACCAAGGTGAATGTCGTTGATCCCTCTGTAGA` at or over 3 in terms of PBM binding z-score?
Response: NO

Query: Does `ATATGTAGGTTATCGGGTCATTCAATTTGCGCAT` have a reported PBM binding z-score of at least 3?
Response: NO

Query: Record `CCTCGGTGGACAACAGGAGGTCAGAGCTGCCAGA` ; criterion: PBM binding z-score no lower than 3. Met?
Response: NO

Query: hey, is PBM binding z-score for this one >= 3? `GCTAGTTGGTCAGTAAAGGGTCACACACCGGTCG`
Response: YES

Query: I'd appreciate it if you could say whether `CCCACTGGGCCAAAAAGGTCATTGATGCCGATAA` has PBM binding z-score at least equal to 3.
Response: YES

###

# System: PPARa:RXRa (NR concentration 270 nM, RXRa partner concentration 90 nM)
# assay-method-text: PBM binding z-score (relative to random genomic background probes); higher = stronger binding; sequences stand for … in GC…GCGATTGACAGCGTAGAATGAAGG
Label True when PBM binding z-score >= 1; otherwise False.

Query: // inclusive: PBM binding z-score at least 1? input: `ACTAACGGGTCAACGAGGTTATAGCACGCGTATA`
Response: True

Query: PBM binding z-score >= 1 for `GCTGCTAGGTCAGGGTGGTCAGCTAACGGGTACG` ?
Response: True

Query: Check the entry `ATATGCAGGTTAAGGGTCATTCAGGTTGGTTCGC` : does PBM binding z-score equal or exceed 1?
Response: True

Query: Assess whether reported PBM binding z-score for `TAGCCTAGGTCATTGGGCCAGAATAGTACGCATC` sits at 1 or higher.
Response: True

Query: Kindly determine if PBM binding z-score recorded for `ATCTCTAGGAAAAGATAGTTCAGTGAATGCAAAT` is above or exactly 1.
Response: False

Query: Determine whether measured PBM binding z-score meets or exceeds 1 for `GCTAGCAGGCCATTTGGTTCACTCAATGACGGGC`
Response: False

Query: Record `CTCGAAAGGTCGTGCTGAGGTGAGTATACCAAAC` ; criterion: PBM binding z-score no lower than 1. Met?
Response: True

Query: Say whether `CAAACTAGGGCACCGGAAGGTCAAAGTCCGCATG` shows PBM binding z-score of 1 or more.
Response: True

Query: Could you tell me if the measured PBM binding z-score of `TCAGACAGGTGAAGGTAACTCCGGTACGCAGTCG` reaches 1 or more?
Response: True

Query: State whether the measured PBM binding z-score reaches 1, counting equality as reaching it, for `ACTCGGAGCACAAAGGTCAGAGCTACGCCAGTGA`
Response: True

Query: I'd appreciate it if you could say whether `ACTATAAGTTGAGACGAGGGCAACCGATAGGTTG` has PBM binding z-score at least equal to 1.
Response: False

Query: Check if PBM binding z-score >= 1 (inclusive). Item: `TCATATAGGTAAAAGGTGAAAGTCGGTGTGGTAA`
Response: True

Query: Does PBM binding z-score meet or surpass 1 for `ATTCAAAGTTCACTAGGTAACGTAAGATTCAGCT` ?
Response: True

Query: Does the reported PBM binding z-score for `TCGAGTTGGTTACCAATGGGGCATTCAGCTTTCT` fall at or above the 1 mark?
Response: False

Query: Threshold query (PBM binding z-score >= 1) on `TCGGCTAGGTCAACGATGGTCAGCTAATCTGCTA`
Response: True

Query: Item `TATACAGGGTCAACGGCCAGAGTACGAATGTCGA` with PBM binding z-score of 1 or above?
Response: True

Query: Hi team, for `GGTTACGGGTCAAAGGTTATAGCATGAATAGAAT` , is the recorded PBM binding z-score at or above 1?
Response: True

Query: Decide: PBM binding z-score of `ACTATTAGTTGACTTAGGGCAACCCATACGACGC` >= 1?
Response: False

Query: Given the entry `ACTCGGAGAACAAAGGTCAGAGCTACGCCAGTGA` , answer whether its PBM binding z-score meets or surpasses 1.
Response: True

Query: Identify whether the reported PBM binding z-score of the following sequence is 1 or greater: `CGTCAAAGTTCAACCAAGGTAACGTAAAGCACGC`
Response: True

Query: Is the recorded value of PBM binding z-score equal to or greater than 1 for this sequence? `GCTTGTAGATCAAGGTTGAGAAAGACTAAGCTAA`
Response: True

Query: # check: PBM binding z-score of `CCGAGTTGGTCAGGAGGTCACACACCGGATATGA` is greater than or equal to 1
Response: True

Query: Can `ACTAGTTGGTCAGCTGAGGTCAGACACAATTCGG` be said to have PBM binding z-score at or above 1?
Response: True

Query: Textbook exercise: given the entry `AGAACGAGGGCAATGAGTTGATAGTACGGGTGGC` , state whether its PBM binding z-score is greater than or equal to 1.
Response: True

Query: Please check the record `TCTCGGAGGACACTAAGGTCAGAGCTTTCCAGAG` and state if its PBM binding z-score is at or above 1.
Response: True

Query: Hi team, for `GCTAGCTGGCCATTTGGGTCACTCAATGACGGGC` , is the recorded PBM binding z-score at or above 1?
Response: False

Query: Confirm if PBM binding z-score reported for the sequence `AGAAAGAGGTTACCAAAGATCAGGGAAACGCTTG` is 1 or above.
Response: True

Query: Dear colleague, could you confirm whether `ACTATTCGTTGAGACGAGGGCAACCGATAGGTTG` has PBM binding z-score at or above 1?
Response: False

Query: Assess whether reported PBM binding z-score for `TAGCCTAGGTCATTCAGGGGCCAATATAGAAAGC` sits at 1 or higher.
Response: True

Query: Textbook exercise: given the entry `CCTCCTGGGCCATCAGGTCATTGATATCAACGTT` , state whether its PBM binding z-score is greater than or equal to 1.
Response: True

Query: Identify whether the reported PBM binding z-score of the following sequence is 1 or greater: `TCTATTAGTTGGTTAGGGCAACCGAAACAGCGGA`
Response: False

Query: Is it the case that `CAAACTAGGTCAAGAAAGGTCAAAGTCGAATGAC` has PBM binding z-score reaching or exceeding 1?
Response: True

Query: Is the recorded value of PBM binding z-score equal to or greater than 1 for this sequence? `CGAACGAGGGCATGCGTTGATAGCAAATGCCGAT`
Response: True

Query: I'd appreciate it if you could say whether `TCTCGGAGGACACGAAGGTAAGAGCTTTCCAGAG` has PBM binding z-score at least equal to 1.
Response: False

Query: Please tell me: is the sequence `TAGCCTAGGTCATTCAGTGGCCAGTATAGAAAGC` at or over 1 in terms of PBM binding z-score?
Response: True

Query: Decide: PBM binding z-score of `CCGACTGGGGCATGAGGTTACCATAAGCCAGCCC` >= 1?
Response: True

Query: I'd appreciate it if you could say whether `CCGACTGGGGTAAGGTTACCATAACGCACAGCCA` has PBM binding z-score at least equal to 1.
Response: True

Query: Entry `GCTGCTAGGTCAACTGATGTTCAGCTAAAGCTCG` : is its PBM binding z-score no less than 1?
Response: True

Query: Determine whether this sequence has PBM binding z-score no lower than 1: `AGTCAAAGTTCACTAGGTGACGTAAGATTCAGCT`
Response: True

Query: Hello, I need to know if `CCTTACGGGTCACGCGGTTATAGCACGACGAGCG` has measured PBM binding z-score not below 1. Thanks!
Response: True

Query: Would you say `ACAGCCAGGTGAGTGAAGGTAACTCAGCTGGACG` shows PBM binding z-score at minimum 1?
Response: False

Query: Quick check: does `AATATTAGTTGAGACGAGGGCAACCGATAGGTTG` have PBM binding z-score greater than or equal to 1?
Response: False

Query: Could you please find out whether `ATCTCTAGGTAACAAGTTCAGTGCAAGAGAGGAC` has PBM binding z-score that meets 1 or exceeds it?
Response: True

Query: Determine whether this sequence has PBM binding z-score no lower than 1: `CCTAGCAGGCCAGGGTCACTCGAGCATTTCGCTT`
Response: True

Query: Threshold query (PBM binding z-score >= 1) on `GTAACGAGGGCATTCGAGTTGATAGCATGGCGAT`
Response: True

Query: Assess whether reported PBM binding z-score for `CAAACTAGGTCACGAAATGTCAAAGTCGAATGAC` sits at 1 or higher.
Response: True

Query: # check: PBM binding z-score of `TCTATTAGTTGAAGGGCAACCGACGAGTCCGTTT` is greater than or equal to 1
Response: False

Query: Kindly determine if PBM binding z-score recorded for `CCTAGTTGGTCGGGAGGTCACACACCGGATATGA` is above or exactly 1.
Response: True

Query: PBM binding z-score >= 1 for `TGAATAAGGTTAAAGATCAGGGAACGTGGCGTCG` ?
Response: True

Query: API: above_or_equal(metric=PBM binding z-score, cutoff=1) for item `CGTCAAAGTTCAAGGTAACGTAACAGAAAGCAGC`
Response: True

Query: Evaluate `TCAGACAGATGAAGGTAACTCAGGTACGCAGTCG` : PBM binding z-score at minimum 1?
Response: False
